Target: T1, EsCas13d, nuclease-dead (Eubacterium siraeum, UniProt B0MS50, R295A;H300A;R849A;H854A)
T1 sequence: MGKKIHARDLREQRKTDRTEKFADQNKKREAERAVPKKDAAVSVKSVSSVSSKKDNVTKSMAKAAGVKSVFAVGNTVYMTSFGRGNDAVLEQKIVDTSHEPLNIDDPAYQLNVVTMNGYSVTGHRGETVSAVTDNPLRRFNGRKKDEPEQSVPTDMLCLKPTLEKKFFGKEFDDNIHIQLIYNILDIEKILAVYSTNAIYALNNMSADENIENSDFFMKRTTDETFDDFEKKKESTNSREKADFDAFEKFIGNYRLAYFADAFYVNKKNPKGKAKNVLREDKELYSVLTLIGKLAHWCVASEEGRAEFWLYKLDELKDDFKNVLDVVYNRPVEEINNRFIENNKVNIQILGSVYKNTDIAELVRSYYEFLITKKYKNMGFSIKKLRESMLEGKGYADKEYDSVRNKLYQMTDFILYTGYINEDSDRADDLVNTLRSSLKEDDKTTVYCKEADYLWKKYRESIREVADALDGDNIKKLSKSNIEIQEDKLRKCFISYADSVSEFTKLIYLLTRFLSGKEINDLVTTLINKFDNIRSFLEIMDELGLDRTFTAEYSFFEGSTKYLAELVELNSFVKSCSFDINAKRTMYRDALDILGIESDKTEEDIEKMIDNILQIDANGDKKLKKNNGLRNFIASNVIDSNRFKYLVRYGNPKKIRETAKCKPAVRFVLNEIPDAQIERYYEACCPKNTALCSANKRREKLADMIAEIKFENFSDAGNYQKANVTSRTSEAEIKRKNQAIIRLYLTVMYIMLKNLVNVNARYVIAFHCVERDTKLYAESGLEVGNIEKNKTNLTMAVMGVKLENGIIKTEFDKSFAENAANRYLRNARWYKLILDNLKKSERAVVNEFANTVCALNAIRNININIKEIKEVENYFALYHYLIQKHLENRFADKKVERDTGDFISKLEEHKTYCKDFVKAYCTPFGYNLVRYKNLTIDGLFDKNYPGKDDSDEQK
Experiment: crRNA (strand 1, pre-loaded); Mg2+; 40 mM Tris-HCl pH 7.5, 150 mM NaCl, 6 mM MgCl2, 1 mM DTT, 0.1% Tween-20, 0.2 mg/ml BSA; 25 C; 10 min per concentration, then washed
Conditions: tags: His6-TwinStrep-SUMO cleaved; N-terminal SNAP kept (SNAP-Surface 488); label: 3' end held by stalled T7 RNA polymerase
Overview of reported log10(Kd) across a group of binders:
Scale: log10; quantity: Kd; unit before log: nM

{"columns": ["binder", "log10(Kd)"],
 "data": [
  ["target 1 MT 5'PFS GCC 3'PFS UCU (mixed) RNA 1: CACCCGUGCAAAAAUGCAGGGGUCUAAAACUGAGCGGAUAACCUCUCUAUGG RNA 2: GGGAAUGGAUCCACAUCUACGAAUUCGCCCCAUAGAGAGGUUAUCCGCUCAUCUAGAUCGGAAGAGCACACGU", 1.09],
  ["target 1 G12C,G15A (mixed) RNA 1: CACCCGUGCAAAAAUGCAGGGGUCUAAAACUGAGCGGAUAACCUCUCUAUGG RNA 2: GGGAAUGGAUCCACAUCUACGAAUUCGUACCAUAGAAAGCUUAUCCGCUCACCGAGAUCGGAAGAGCACACGU", 1.70],
  ["target 3 U2G,G14A (mixed) RNA 1: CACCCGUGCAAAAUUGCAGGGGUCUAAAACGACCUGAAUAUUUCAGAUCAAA RNA 2: GGGAAUGGAUCCACAUCUACGAAUUCGUUUUUGAUCUAAAAUAUUCAGGGCUGCAGAUCGGAAGAGCACACGU", 2.03]
]}

Notebook: target 3 G3C,A5C (mixed) RNA 1: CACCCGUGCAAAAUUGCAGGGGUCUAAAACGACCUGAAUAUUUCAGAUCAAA RNA 2: GGGAAUGGAUCCACAUCUACGAAUUCGUUUUUGAUCUGAAAUAUUCCGCUCUGCAGAUCGGAAGAGCACACGU , log10(Kd) read as 1.98

Notebook: target 2 MT 5'PFS GCA 3'PFS UUA (mixed) RNA 1: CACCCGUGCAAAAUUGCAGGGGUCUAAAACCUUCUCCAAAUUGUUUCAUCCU RNA 2: GGGAAUGGAUCCACAUCUACGAAUUCGCAAGGAUGAAACAAUUUGGAGAAGUUAAGAUCGGAAGAGCACACGU , log10(Kd) read as 1.23

Where do these numbers come from? They come from paper PMC10786891.
